Cited source: paper PMC3783180

Target: T1, S. cerevisiae Dhh1 residues 251-425 (RecA2 domain) (S. cerevisiae, UniProt P39517 251-425)
T1 sequence: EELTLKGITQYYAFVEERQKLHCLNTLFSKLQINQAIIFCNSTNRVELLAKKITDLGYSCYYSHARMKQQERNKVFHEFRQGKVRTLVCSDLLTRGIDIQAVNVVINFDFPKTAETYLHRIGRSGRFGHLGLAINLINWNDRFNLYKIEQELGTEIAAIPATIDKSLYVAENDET
Assay: ITC
pKd: −log10 of the molar value.

binder: His6-SUMO-tagged S. cerevisiae Pat1 residues 5-79 (domain or fragment) GLENSGNARDGPLDFEESYKGYGEHELEENDYLNDETFGDNVQVGTDFDFGNPHSSGSSGNAIGGNGVGATARSY
pKd: 7.49
